I'd be grateful if you could share measured cell killing Span, JVM-13 (CLL) cells for these entries.
testedSystem: CD74 (human), P04233
Sequence (P04233 whole entry): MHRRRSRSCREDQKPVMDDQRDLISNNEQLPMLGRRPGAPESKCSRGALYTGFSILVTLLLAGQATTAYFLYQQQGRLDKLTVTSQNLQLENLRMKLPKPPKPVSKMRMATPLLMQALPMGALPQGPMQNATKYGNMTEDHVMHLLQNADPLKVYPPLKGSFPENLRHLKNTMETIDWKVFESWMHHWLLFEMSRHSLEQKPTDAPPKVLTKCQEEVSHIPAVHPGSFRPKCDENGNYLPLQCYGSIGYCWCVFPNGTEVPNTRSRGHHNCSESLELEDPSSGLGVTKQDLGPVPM
experiment: cell-based or functional assay
One number for each entry, in %.

binder	observedResult
Conjugate F (anti-CD74 IgG-PEG4-MMAE conjugate) (antibody, V domains shown, here or on the partner: modified amino acid residue 30 (pAMF) according to Example 2, position not stated for this conjugate, linked to PEG4-MMAE) VH: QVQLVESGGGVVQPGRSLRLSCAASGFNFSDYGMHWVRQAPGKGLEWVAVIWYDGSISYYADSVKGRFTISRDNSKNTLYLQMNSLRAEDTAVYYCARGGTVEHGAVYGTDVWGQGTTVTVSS VL: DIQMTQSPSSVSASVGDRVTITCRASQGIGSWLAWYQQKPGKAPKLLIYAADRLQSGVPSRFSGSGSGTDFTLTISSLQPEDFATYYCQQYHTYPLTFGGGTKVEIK	59

[Q] # lookup: cell killing Span, JVM-13 (CLL) cells of Conjugate A (anti-CD74 IgG-DBCO-PEG4-maytansine conjugate) (antibody, V domains shown, here or on the partner: para-azidomethyl-L-phenylalanine (pAMF, residue 30) at heavy chain EU position 404 (constant region, outside SEQ ID NO 236), linked to DBCO-PEG4-maytansine) VH: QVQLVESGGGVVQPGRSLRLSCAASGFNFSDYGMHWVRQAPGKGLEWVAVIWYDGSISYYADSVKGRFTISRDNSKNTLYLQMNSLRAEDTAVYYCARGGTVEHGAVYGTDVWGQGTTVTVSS VL: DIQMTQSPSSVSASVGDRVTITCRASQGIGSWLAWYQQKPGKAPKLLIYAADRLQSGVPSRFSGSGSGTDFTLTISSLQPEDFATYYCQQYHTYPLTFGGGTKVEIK
[A] 65
